- Tested on: Mus musculus
- RUN_DESCRIPTION: Neurotoxicity in ip dosed Mus musculus (mouse) assessed as motor impairment after 0.5 hr by rotorod test
- Type: toxicity, organism-based
- SETTINGS: in vivo
// reported MED for each item listed
API: value field is a number in mg/kg; no unit string.

{"COMPOUND": "NC(=O)N1c2ccccc2C=Cc2ccccc21 [CARBAMAZEPINE]", "MED (mg/kg)": 100}
{"COMPOUND": "Fc1ccc(/C=N/NC(=S)Nc2nc3ccc(Cl)cc3s2)cc1", "MED (mg/kg)": 100}
{"COMPOUND": "O=C1NC(=O)C(c2ccccc2)(c2ccccc2)N1 [PHENYTOIN]", "MED (mg/kg)": 100}
{"COMPOUND": "CN(C)c1ccc(/C=N/NC(=S)Nc2nc3ccc(Cl)cc3s2)cc1", "MED (mg/kg)": 100}
{"COMPOUND": "O=[N+]([O-])c1ccc(/C=N/NC(=S)Nc2nc3ccc(Cl)cc3s2)cc1", "MED (mg/kg)": 300}
{"COMPOUND": "S=C(N/N=C/c1ccc(Cl)cc1)Nc1nc2ccc(Cl)cc2s1", "MED (mg/kg)": 300}
{"COMPOUND": "O=C(CN(c1ccccc1)c1ccccc1)Nc1nc2ccc(Cl)cc2s1", "MED (mg/kg)": 300}
{"COMPOUND": "S=C(N/N=C/c1ccccc1)Nc1nc2ccc(Cl)cc2s1", "MED (mg/kg)": 300}
{"COMPOUND": "O=C(Cn1ccc2ccccc21)Nc1nc2ccc(Cl)cc2s1", "MED (mg/kg)": 100}

Q: Query: MED; subject: `COc1ccc(/C=N/NC(=S)Nc2nc3ccc(Cl)cc3s2)cc1`
Ans: 100
